Reference source: paper PMC3997483

assay_protocol: Pharmacokinetics IV/PO in rats
Format: in vivo, SD rats
experimental_parameters: SD, plasma; rat IV 1.25 mg/kg
Experimental: Pharmacokinetics profile of KMS88009 was obtained using ICR mice, SD rats, beagle dogs and cynomolgus monkeys. Animals were fasted overnight before KMS88009 administration. Mice were divided into 2 groups to receive KMS88009 as a single dose of 2.1 mg/kg intravenous (IV) bolus or 10 mg/kg orally (PO) by gavage. Additionally, KMS88009 was administered orally to estimate the BBB penetration in mice (10, 30 and 100 mg/kg). […] The levels of KMS88009 were determined by the LC-MS/MS analysis. […]
observable: clearance
I'd appreciate it if you wrote the number followed by its unit.

Quick one: clearance for "COc1ccc2cc(C=Cc3ccc(N(C)C)cc3)oc2c1" ?
13.3 mL/min/kg

###

assay_protocol: Single dose oral toxicity study
Assay type: in vivo
experimental_parameters: SD, rat, in vivo, po
observable: LD50 at 14 days

Quick one: LD50 at 14 days for "COc1ccc2cc(C=Cc3ccc(N(C)C)cc3)oc2c1" ?
> 2000 mg/kg

###

assay_protocol: Pharmacokinetics IV/PO in rats
Assay type: in vivo, SD rats
experimental_parameters: SD, plasma; rat IV 1.25 mg/kg
observable: Vd (L/kg)
Write the value in L/kg as a bare number.

Quick one: Vd for "COc1ccc2cc(C=Cc3ccc(N(C)C)cc3)oc2c1" ?
8

###

assay_protocol: Pharmacokinetics IV/PO in dogs
Type: in vivo, beagle dogs
experimental_parameters: beagle; dog PO 4 mg/kg, plasma
observable: Cmax (ng/mL)
Write the value in ng/mL as a bare number.

Quick one: Cmax for "COc1ccc2cc(C=Cc3ccc(N(C)C)cc3)oc2c1" ?
32.8

###

assay_target: CYP2C19 (Homo sapiens, UniProt P33261)
Sequence (P33261 whole entry): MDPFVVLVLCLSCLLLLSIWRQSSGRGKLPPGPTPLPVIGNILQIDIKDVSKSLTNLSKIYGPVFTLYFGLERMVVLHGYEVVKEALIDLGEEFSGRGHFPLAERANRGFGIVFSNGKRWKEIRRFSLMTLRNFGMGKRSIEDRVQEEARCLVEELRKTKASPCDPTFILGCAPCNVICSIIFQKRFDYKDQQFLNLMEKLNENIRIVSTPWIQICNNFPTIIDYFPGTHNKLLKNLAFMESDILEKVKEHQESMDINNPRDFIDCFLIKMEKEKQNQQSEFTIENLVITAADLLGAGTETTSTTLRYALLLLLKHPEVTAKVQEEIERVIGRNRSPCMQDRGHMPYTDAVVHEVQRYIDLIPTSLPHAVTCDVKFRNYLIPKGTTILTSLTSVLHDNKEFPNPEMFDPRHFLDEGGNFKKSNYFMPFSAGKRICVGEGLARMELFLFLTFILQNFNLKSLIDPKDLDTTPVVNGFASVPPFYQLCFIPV
observable: pIC50
# pIC50 is unitless: minus log10 of the molar concentration; print number only

Quick one: pIC50 for "COc1ccc2cc(C=Cc3ccc(N(C)C)cc3)oc2c1" ?
5.60

###

assay_protocol: Pharmacokinetics IV/PO in monkeys
Type: in vivo, cynomolgus monkeys
experimental_parameters: cynomolgus monkey, plasma; monkey PO 5.6 mg/kg
observable: MRT last (h)
Write the value in h as a bare number.

Quick one: MRT last for COc1ccc2cc(C=Cc3ccc(N(C)C)cc3)oc2c1 [KMS88009] ?
5.9

###

assay_protocol: Pharmacokinetics IV/PO in monkeys
Format: in vivo, cynomolgus monkeys
experimental_parameters: cynomolgus monkey, plasma; monkey PO 5.6 mg/kg
observable: Tmax (h)
Write the value in h as a bare number.

Quick one: Tmax for "COc1ccc2cc(C=Cc3ccc(N(C)C)cc3)oc2c1" ?
2.7

###

assay_protocol: Plasma and brain pharmacokinetics (BBB penetration) after PO in rats
Assay type: in vivo
experimental_parameters: SD, rat; brain, rats PO 2.5 mg/kg
observable: Cmax (ng/g)
Write the value in ng/g as a bare number.

Quick one: Cmax for COc1ccc2cc(C=Cc3ccc(N(C)C)cc3)oc2c1 [KMS88009] ?
1310

###

assay_protocol: Pharmacokinetics IV/PO in dogs
Assay type: in vivo, beagle dogs
experimental_parameters: beagle, plasma; dog IV 1 mg/kg
observable: clearance

Quick one: clearance for "COc1ccc2cc(C=Cc3ccc(N(C)C)cc3)oc2c1" ?
158 mL/min/kg

###

assay_protocol: in vitro
experimental_parameters: monkey, liver microsomes
observable: remaining at 1 h, 5 µM (%)
Write the value in % as a bare number.

Quick one: remaining at 1 h, 5 µM for COc1ccc2cc(C=Cc3ccc(N(C)C)cc3)oc2c1 [KMS88009] ?
30.9

###

assay_protocol: Pharmacokinetics IV/PO in dogs
Format: in vivo, beagle dogs
experimental_parameters: beagle, plasma; dog IV 1 mg/kg
observable: MRT last
I'd appreciate it if you wrote the number followed by its unit.

Quick one: MRT last for "COc1ccc2cc(C=Cc3ccc(N(C)C)cc3)oc2c1" ?
2.9 h

###

assay_target: CYP1A2 (Homo sapiens)
Sequence (P05177 1-516): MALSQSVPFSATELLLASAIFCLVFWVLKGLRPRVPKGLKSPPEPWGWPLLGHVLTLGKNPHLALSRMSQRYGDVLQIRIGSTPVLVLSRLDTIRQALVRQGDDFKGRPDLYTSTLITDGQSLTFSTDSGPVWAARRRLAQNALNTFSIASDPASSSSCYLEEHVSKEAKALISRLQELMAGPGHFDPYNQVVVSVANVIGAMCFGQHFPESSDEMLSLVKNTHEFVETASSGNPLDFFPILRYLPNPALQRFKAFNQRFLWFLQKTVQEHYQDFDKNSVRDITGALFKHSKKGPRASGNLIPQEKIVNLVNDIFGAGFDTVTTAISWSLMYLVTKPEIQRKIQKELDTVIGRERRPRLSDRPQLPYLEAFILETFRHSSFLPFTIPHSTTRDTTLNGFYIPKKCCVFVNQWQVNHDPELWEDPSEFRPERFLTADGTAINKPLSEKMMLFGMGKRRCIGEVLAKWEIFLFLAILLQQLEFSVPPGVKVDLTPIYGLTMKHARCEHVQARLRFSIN
observable: IC50 (nM)
Write the value in nM as a bare number.

Quick one: IC50 for COc1ccc2cc(C=Cc3ccc(N(C)C)cc3)oc2c1 [KMS88009] ?
740

###

assay_protocol: Pharmacokinetics IV/PO in monkeys
Type: in vivo, cynomolgus monkeys
experimental_parameters: cynomolgus monkey; monkey IV 0.77 mg/kg, plasma; read-out: AUC0–24h
observable: AUC(0-t) (ng·h/mL)
Write the value in ng·h/mL as a bare number.

Quick one: AUC(0-t) for "COc1ccc2cc(C=Cc3ccc(N(C)C)cc3)oc2c1" ?
1540

###

assay_protocol: Metabolic stability in liver microsomes
Type: in vitro ADME
experimental_parameters: dog liver microsomes
observable: half-life at 5 µM (min)
Write the value in min as a bare number.

Quick one: half-life at 5 µM for "COc1ccc2cc(C=Cc3ccc(N(C)C)cc3)oc2c1" ?
21.3

###

assay_protocol: Pharmacokinetics IV/PO in dogs
Type: in vivo, beagle dogs
experimental_parameters: beagle, plasma; dog IV 1 mg/kg
observable: Vd (L/kg)
Write the value in L/kg as a bare number.

Quick one: Vd for "COc1ccc2cc(C=Cc3ccc(N(C)C)cc3)oc2c1" ?
115

###

assay_protocol: Pharmacokinetics IV/PO in dogs
Type: in vivo, beagle dogs
experimental_parameters: beagle; dog IV 1 mg/kg, plasma
observable: AUC(0-inf) (µg·h/mL)
Write the value in µg·h/mL as a bare number.

Quick one: AUC(0-inf) for "COc1ccc2cc(C=Cc3ccc(N(C)C)cc3)oc2c1" ?
0.117

###

assay_protocol: Pharmacokinetics IV/PO in mice
Assay type: in vivo, ICR mice
experimental_parameters: ICR, plasma; mouse PO 10 mg/kg
observable: Tmax
I'd appreciate it if you wrote the number followed by its unit.

Quick one: Tmax for "COc1ccc2cc(C=Cc3ccc(N(C)C)cc3)oc2c1" ?
1 h

###

assay_protocol: Metabolic stability in liver microsomes
Assay type: in vitro ADME
experimental_parameters: mouse liver microsomes
observable: half-life at 5 µM (h)
Write the value in h as a bare number.

Quick one: half-life at 5 µM for "COc1ccc2cc(C=Cc3ccc(N(C)C)cc3)oc2c1" ?
1.09

###

assay_protocol: Pharmacokinetics IV/PO in mice
Format: in vivo, ICR mice
experimental_parameters: ICR, plasma; mouse IV 2.1 mg/kg
observable: clearance
I'd appreciate it if you wrote the number followed by its unit.

Quick one: clearance for "COc1ccc2cc(C=Cc3ccc(N(C)C)cc3)oc2c1" ?
63.3 mL/min/kg

###

assay_protocol: Pharmacokinetics IV/PO in rats
Format: in vivo, SD rats
experimental_parameters: SD, plasma; rat PO 2.5 mg/kg
observable: MRT last
I'd appreciate it if you wrote the number followed by its unit.

Quick one: MRT last for "COc1ccc2cc(C=Cc3ccc(N(C)C)cc3)oc2c1" ?
4 h

###

assay_protocol: Solubility studies
Assay type: physicochemical
experimental_parameters: simulated gastric fluid (SGF); SGF, pH 1.2, 37 °C; read-out: Solubility
observable: solubility (µg/mL)
Write the value in µg/mL as a bare number.

Quick one: solubility for COc1ccc2cc(C=Cc3ccc(N(C)C)cc3)oc2c1 [KMS88009] ?
4

###

assay_protocol: Plasma and brain pharmacokinetics (BBB penetration) after PO in mice
Type: in vivo
experimental_parameters: ICR, mouse; brain, mice PO 100 mg/kg
observable: Tmax
I'd appreciate it if you wrote the number followed by its unit.

Quick one: Tmax for "COc1ccc2cc(C=Cc3ccc(N(C)C)cc3)oc2c1" ?
10 h

###

assay_protocol: Plasma and brain pharmacokinetics (BBB penetration) after PO in mice
Assay type: in vivo
experimental_parameters: ICR, mouse; plasma, mice PO 30 mg/kg; read-out: AUC0–24h
observable: AUC(0-t) (ng·h/mL)
Write the value in ng·h/mL as a bare number.

Quick one: AUC(0-t) for COc1ccc2cc(C=Cc3ccc(N(C)C)cc3)oc2c1 [KMS88009] ?
13400

###

assay_protocol: Plasma and brain pharmacokinetics (BBB penetration) after PO in mice
Assay type: in vivo
experimental_parameters: ICR, mouse; plasma, mice PO 100 mg/kg
observable: Cmax (ng/mL)
Write the value in ng/mL as a bare number.

Quick one: Cmax for COc1ccc2cc(C=Cc3ccc(N(C)C)cc3)oc2c1 [KMS88009] ?
2710
